Recorded values, source paper PMC2582146.

Target: T1, NHERF1 PDZ1 domain (human, UniProt O14745 1-139)
T1 sequence (looked up): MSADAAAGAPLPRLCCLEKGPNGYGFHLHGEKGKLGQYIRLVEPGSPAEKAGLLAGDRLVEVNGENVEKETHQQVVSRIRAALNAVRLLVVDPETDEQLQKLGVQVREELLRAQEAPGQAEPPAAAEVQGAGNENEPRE
Assay: SPR
parameter.measured: Kd (nM)
Output spec: scalar in nM, unitless text.

Notebook: CTEEEVQDTRL [C-CFTR10] , Kd read as 10.3
